Just for reference, ChEMBL document CHEMBL3826972 is where these values come from.

System: RAW264.7
assayOverview: Inhibition of LPS-induced NO production in mouse RAW264.7 cells by Griess assay
Format: functional, cell-based
pIC50: −log10 of the molar value.
recordedEndpoint: pIC50

| compound | measuredOn | pIC50 |
| --- | --- | --- |
| C[C@@H]1CO[C@]2(C[C@@H]1O)O[C@@H]1C[C@@H]3[C@H]4CC=C5C[C@H](O[C@@H]6O[C@H](CO)[C@@H](O)[C@H](O[C@@H]7O[C@@H](C)[C@H](O[C@@H]8O[C@H](CO)[C@@H](O)[C@H](O)[C@H]8O)[C@@H](O)[C@H]7O)[C@H]6O[C@@H]6O[C@@H](C)[C@H](O)[C@@H](O)[C@H]6O)CC[C@@]5(C)[C@@H]4CC[C@@]3(C)[C@@H]1[C@H]2C (stereo in doubt) | RAW264.7 | < 4.10 |

// returns reported pIC50 for input C[C@@H]1O[C@@H](O[C@H]2[C@H](O[C@H]3CC[C@@]4(C)C(=CC[C@H]5[C@@H]6C[C@@H]7OC8(OC[C@](C)(O)C[C@@H]8O)[C@@H](C)[C@@H]7[C@@]6(C)CC[C@@H]54)C3)O[C@H](CO)[C@@H](O)[C@@H]2O[C@@H]2O[C@@H](C)[C@H](O)[C@@H](O)[C@H]2O)[C@H](O)[C@H](O)[C@H]1O (single isomer, unassigned)
< 4.10

Quick one: pIC50 for C[C@@H]1O[C@@H](O[C@H]2[C@H](O[C@@H]3CC[C@]4(C)C(=CC[C@@H]5[C@H]6C[C@H]7O[C@@]8(OC[C@](C)(O)C[C@H]8O)[C@H](C)[C@H]7[C@]6(C)CC[C@H]54)C3)O[C@H](CO)[C@@H](O)[C@@H]2O[C@@H]2O[C@@H](C)[C@H](O[C@@H]3O[C@H](CO)[C@@H](O)[C@H](O)[C@H]3O)[C@@H](O)[C@H]2O)[C@H](O)[C@H](O)[C@H]1O (stereo in doubt) ?
< 4.10
